ATTRIBUTE MEASURED: melting point

# annotated cases, reported melting point shown
## Task Name the recorded melting point of the molecule listed here: C=Cn1c(-c2ccc(NS(=O)(=O)C3CC3)cc2)c(C#N)c2ccc(OC)cc21 [Compound 635]
## Result 200 to 201 °C

## Task Look up and report measured melting point for this entry: COc1ccc(-n2cc(C#N)c3ccc(Cl)cc32)cc1 [Compound 119]
## Result 126 to 128 °C

## Task Give me measured melting point, please, for this molecule: CCS(=O)(=O)Nc1ccc(-c2c(C#N)c3ccc(OC)cc3n2C)cc1 [Compound 345]
## Result 191 to 192 °C

Give melting point for all molecules that follow.
1. CCCOC(=O)Nc1ccc(-c2c(C#N)c3ccc(OC)cc3n2CCOC)cc1 [Compound 677]
2. CCn1c(C#Cc2cccc(NC(=O)C(C)C)c2)c(C#N)c2ccc(OC)cc21 [Compound 207]
3. CCn1c(-c2ccc(NC(=O)C3CCC3)cc2)c(C#N)c2ccc(OC)cc21 [Compound 801]
4. CCn1c(-c2ccc(S(N)(=O)=O)cc2)c(C#N)c2cc(-c3cccc(OC)c3)ccc21 [Compound 461]
5. CCCn1c(-c2ccc(NS(=O)(=O)C(C)C)cc2)c(C#N)c2ccc(OC)cc21 [Compound 622]

## Result
1: 133 to 134 °C; 2: 179 to 183 °C; 3: 199 to 219 °C; 4: 200 to 205 °C; 5: 182 to 183 °C

====

Tested on: HCV replicon
PROTOCOL DESCRIPTION: microbe, parasite or virus in culture
Assay type: cell-based
APPLIED CONDITIONS: Replicon IC50 values are determined by firefly luciferase signal; bicistronic replicon, 2 days; read-out: Replicon IC5Os
Consider the following compounds; for each one, report its IC50.

Consider the reported IC50 for these compounds:
## Task Annotate the compound CCn1c(-c2ccc(C(=O)Nc3ccc(Cl)c(Cl)c3)cc2)c(C#N)c2ccc(OC)cc21 with its measured IC50.
## Result > 2000 nM

## Task Supply recorded IC50 for CCn1c(-c2ccc(NS(=O)(=O)CC)cc2)c(C#N)c2cc(F)ccc21 here.
## Result 500 to 2000 nM

## Task Retrieve IC50 measured for CCn1cc(-c2ccno2)c2ccc(C(=O)OC)cc21 and print it.
## Result > 2000 nM

## Task Report measured IC50; entry is CCn1c(NC(=O)c2ccc(C#N)cc2)c(C#N)c2ccc(OC)cc21
## Result 500 to 2000 nM

## Task Kindly indicate its recorded IC50. Item: CCCn1c(-c2ccc(N(C)S(C)(=O)=O)cc2)c(C#N)c2ccc(OC)cc21
## Result 500 to 2000 nM

## Task Give recorded IC50. CCNS(=O)(=O)Nc1cccc(-c2c(C#N)c3ccc(OC)cc3n2CC)c1
## Result > 2000 nM

## Task Please give the documented IC50 of C=Cn1c(-c2ccc(NS(C)(=O)=O)cc2)c(C#N)c2ccc(OC)cc21
## Result 500 to 2000 nM

## Task Give me measured IC50, please, for this compound: CCCn1c(-c2ccc(NS(C)(=O)=O)cc2)c(C#N)c2ccc(OCC)cc21
## Result < 500 nM

Provide reported IC50 for each item, in the same order as listed.
1. CCn1c(-c2ccc(N(C)S(C)(=O)=O)cc2)c(C#N)c2ccc(O)cc21
2. Cc1ccc2c(C#N)cn(-c3ccc4c(c3)OCO4)c2c1
3. CCOc1ccc2cc(-c3ccc(NS(C)(=O)=O)cc3)n(C3CCC3)c2c1
4. C=Cn1c(-c2ccc(NS(=O)(=O)CCCCl)cc2)c(C#N)c2ccc(OC)cc21
5. CCS(=O)(=O)N(C)c1ccc(-c2c(C#N)c3ccc(OC)cc3n2CC2CC2)cc1
6. COc1ccc2c(C#N)c(C#Cc3cccc(Cl)c3)[nH]c2c1

## Result
["> 2000 nM", "500 to 2000 nM", "500 to 2000 nM", "< 500 nM", "500 to 2000 nM", "> 2000 nM"]

// each compound listed below needs its IC50
1. CCn1c(C#Cc2ccc(OC)cc2)c(C#N)c2ccc(OC)cc21
2. CCn1c(-c2cccc(NC(=O)OCC(C)C)c2)c(C#N)c2ccc(OC(C)C)cc21
3. COc1ccc2c(C#N)c(-c3cccc(C)c3)n(C)c2c1
4. CCn1c(-c2cccc(N)c2)c(C#N)c2cc(Cl)ccc21

## Result
1: 500 to 2000 nM; 2: > 2000 nM; 3: > 2000 nM; 4: > 2000 nM

All figures here come from patent US8013006B2.
